Provenance of the data: PubChem BioAssay (NCI)

System: NCI/ADR-RES ovarian
Assay: NCI-60 one-dose screen, 48 h
Details: 10 µM unless noted
Protocol: Growth inhibition of the NCI/ADR-RES human […] tumor cell line is measured as a screen for anti-cancer activity. Cells are grown in 96 well plates and exposed to the test compound for 48 hours. Compounds are tested at a single concentration, which is 10^-5 M for most compounds. The reported endpoint is percent growth (GI% or GIPRCNT), where numbers from 0 - 100% represent growth inhibition, and numbers from -100% - 0 represent cell death. For example, a value of 40 represents 60% growth inhibition. […]
The panel holds about 83,000 compounds, 20% with a hit somewhere; the sample as a whole holds those more often. Active and inactive are the calls of the source. How the source made its calls: active means growth percent below 10; inactive means the rest.
Reply using exactly one outcome from 1 (yes) = active, 0 (no) = inactive

Input: Could you check what this test reported for CO[C@H]1CC[C@@]2(C)C(=CC[C@@H]3[C@@H]2CC[C@]2(C)C(=O)C(=O)C[C@@H]32)C1 ?
Output: 0 (no)

Input: Could you check what this test reported for CC(C)(N)Cc1ccccc1 ?
Output: 0 (no)

Input: Could you check what this test reported for O=C(c1cccc(O)c1O)c1cn(Cc2ccc(F)cc2)c2cccc(O)c12 ?
Output: 0 (no)

Input: Could you check what this test reported for CC[C@H](C)[C@H](NC(=O)N[C@@H](C)c1ccccc1)C(=O)N(C)[C@H](C[C@@H](OC(C)=O)c1nc(C(=O)N[C@@H](Cc2ccccc2)C[C@H](C)C(=O)OC)cs1)C(C)C ?
Output: 0 (no)

Input: Could you check what this test reported for CCOC(=O)[C@@H](C)C[C@H](Cc1ccccc1)NC(=O)c1csc([C@@H](C[C@H](C(C)C)N(C)C(=O)[C@H](CCC(C)C)NC(=O)[C@H]2CCCCN2C)OC(C)=O)n1 ?
Output: 1 (yes)

Input: Could you check what this test reported for O=C1OCC2=C1C(c1ccccc1)c1cc3c(cc1N2)OCO3 (centres undefined) ?
Output: 1 (yes)

Input: Could you check what this test reported for O=[N+]([O-])c1c(Br)sc(Br)c1[N+](=O)[O-] ?
Output: 1 (yes)

Input: Could you check what this test reported for O=C1CN=C(c2ccc(Cl)cc2)c2sccc2N1 ?
Output: 0 (no)

Input: Could you check what this test reported for CCCCOc1ccc(C(N)Cc2ccccc2)cc1 (centres undefined) ?
Output: 0 (no)

* * *

Assignment: determine reported growth for the given compounds.
system: MDA-MB-435 melanoma; test: NCI-60 one-dose screen, 48 h (100 = growth as untreated, 0 = no growth, -100 = all killed); details: 10 µM unless noted
The panel holds about 83,000 compounds, 20% with a hit somewhere; the sample as a whole holds those more often.
The reply should be a number in %, with the unit left off.

Input: Supply growth value. Item: C/C(=C\c1ccn(-c2ccc(N)cc2)n1)[C@@H]1C[C@@H]2O[C@]2(C)CCC[C@H](C)[C@H](O)[C@@H](C)C(=O)C(C)(C)[C@@H](O)CC(=O)O1
Output: -33.6

Input: Supply growth value. Item: CC(=O)Nc1nc2c(s1)CC[C@@]1(C)C2=CC[C@H]2[C@@H]3CC[C@H](O)[C@@]3(C)CC[C@@H]21
Output: 5.93

Input: Supply growth value. Item: O=C1NC(=O)C(=Cc2cccn2CCCCCn2c3ccccc3c(=O)c3ccccc32)C(=O)N1
Output: 97.7

Input: Supply growth value. Item: CCCCCSC1C2C(=O)C(Br)=CC13CCNc1c(O)c4c5c(c13)=[N+]2CCC=5C=N4 (stereo not drawn)
Output: -81.1

Input: Supply growth value. Item: COc1cc([C@@H]2c3cc4c(cc3[C@H](OC(C)=O)[C@H]3COC(=O)[C@H]23)OCO4)cc(OC)c1OC
Output: -8.58

Input: Supply growth value. Item: CC(C)COC(C[N+](=O)[O-])C(Cl)(Cl)Cl (stereo not drawn)
Output: 111

Input: Supply growth value. Item: Nc1ccc2c(c1)Cc1cc(Br)ccc1-2
Output: 111

Input: Supply growth value. Item: ClC1=C(Cl)C(Cl)(C2(Cl)C(Cl)=C(Cl)C(Cl)=C2Cl)C(Cl)=C1Cl
Output: -50.9

Input: Supply growth value. Item: Cc1ccccc1NC(=NCCCN1CC1)Nc1ccccc1C
Output: 93

Input: Supply growth value. Item: NC(=O)CNc1ccc([As]=[As]c2ccc(NCC(N)=O)cc2)cc1 (stereo not drawn)
Output: 61.7

Input: Supply growth value. Item: Cc1ccc(C(Cc2ccccc2)NCCO)cc1 (stereo not drawn)
Output: 99.1

Input: Supply growth value. Item: CC(=O)O[C@H]1CC[C@@]2(C)C(=CC[C@H]3[C@@H]4C[C@@H](N5CC5)[C@H](C(C)=O)[C@@]4(C)CC[C@@H]32)C1
Output: 99.9

Input: Supply growth value. Item: CC(=O)OC1CCC2C3CCC4=C/C(=N/OC(=O)c5ccc(N(CCCl)CCCl)cc5)CCC4(C)C3CC(C)C12 (stereo not drawn)
Output: 78.3

Input: Supply growth value. Item: COc1ccc(Nc2ccc([N+](=O)[O-])cc2[N+](=O)[O-])cc1CN(CCCl)CCCl
Output: 55.2

Input: Supply growth value. Item: COC1CC2c3ccccc3C1C(C)=[N+]2C (stereo not drawn)
Output: 100

Input: Supply growth value. Item: C=C1C(=O)O[C@H]2[C@H]1CC/C(COC(=O)C(=O)c1cn(Cc3ccccc3)c3ccccc13)=C\CC[C@@]1(C)O[C@@H]21
Output: -76.6

Input: Supply growth value. Item: COc1ccc(Nc2ccnc3cc(Cl)ccc23)cc1CN(CCCl)CCCl
Output: -88.3

Input: Supply growth value. Item: COc1cc2c(c(OC)c1OC)-c1ccc([O-])c(=O)cc1[C@@H](NC(C)=O)CC2.COc1cc2c(c(OC)c1OC)-c1ccc([O-])c(=O)cc1[C@@H](NC(C)=O)CC2.[Cu+2]
Output: -18.8
